Consider the following binders and their measured pEC50 readings.
Molecular target: T1, human Trop2 on cells (human, UniProt P09758 27-323)
T1 construct: whole, on cells; also called hTrop2; 293T-human Trop2 cells
T1 sequence (looked up): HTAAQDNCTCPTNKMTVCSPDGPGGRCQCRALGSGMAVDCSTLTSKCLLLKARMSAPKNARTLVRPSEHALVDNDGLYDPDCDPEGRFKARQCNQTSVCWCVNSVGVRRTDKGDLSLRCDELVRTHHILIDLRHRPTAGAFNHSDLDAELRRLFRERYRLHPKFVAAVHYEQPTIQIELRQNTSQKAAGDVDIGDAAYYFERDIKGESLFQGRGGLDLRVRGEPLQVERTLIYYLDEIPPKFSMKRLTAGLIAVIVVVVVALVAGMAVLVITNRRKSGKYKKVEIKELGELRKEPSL
Experiment: flow cytometry on 293T-human Trop2 cells
pEC50: −log10 of the molar value.
measured_metric: pEC50

{"columns": ["binder", "measured_metric", "experimental_result"],
 "data": [
  ["PR001150 (antibody, human IgG1, kappa, V domains shown, fully human IgG1/kappa; also called antibody No. (13)) VH: QVQLVESGGGVVQPEKSLRLSCAASGFTFSHYGMHWVRQVPGKGLEWVAVIWYDGIKRYYVESVKGRFTISRDNSKNTLYLQMNRLRAEDTAVYYCARDGGFGESNYYGLDVWGQGTTVTVSS VL: DIQLTQSPSFLSASVGDRVTITCRASQGINSYLGWYQRKPGKAPKLLIYIASTLQSGVPSRFSGSGSGTEFTLTISSLQPEDFATYYCQQLNSYPYTFGQGTKLEIKR", "pEC50", 9.23],
  ["comparative example 2 antibody Tab (hRS7) (antibody, human IgG1, kappa, V domains shown, prepared on the basis of sacituzumab govitecan (ChemPartner, #T07-001); naked antibody) VH: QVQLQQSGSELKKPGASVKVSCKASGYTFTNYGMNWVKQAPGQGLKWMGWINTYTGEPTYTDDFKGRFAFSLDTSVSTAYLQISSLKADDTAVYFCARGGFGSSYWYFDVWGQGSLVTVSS VL: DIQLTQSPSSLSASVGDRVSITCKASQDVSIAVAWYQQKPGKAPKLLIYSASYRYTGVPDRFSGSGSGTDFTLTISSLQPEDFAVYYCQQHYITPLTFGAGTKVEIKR", "pEC50", 9.12],
  ["PR001165 (antibody, human IgG1, kappa, V domains shown, fully human IgG1/kappa; also called antibody No. (26)) VH: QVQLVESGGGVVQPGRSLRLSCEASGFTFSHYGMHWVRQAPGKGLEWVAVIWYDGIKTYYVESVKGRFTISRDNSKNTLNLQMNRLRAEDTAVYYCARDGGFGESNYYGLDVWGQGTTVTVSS VL: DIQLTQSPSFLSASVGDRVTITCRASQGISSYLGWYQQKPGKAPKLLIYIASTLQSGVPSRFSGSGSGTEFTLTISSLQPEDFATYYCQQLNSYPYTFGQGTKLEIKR", "pEC50", 9.38],
  ["PR001163 (antibody, human IgG1, kappa, V domains shown, fully human IgG1/kappa; also called antibody No. (24)) VH: QVQLVESGGDVVQPGRSLRLSCEASGFTFSHYGMHWVRQAPGKGLEWVAVVWYDGIKKYYVESVKGRFTISRDNSKNTLYLQMNRLRAEDTAVYYCARDGGFGELNYYGLDVWGQGTTVTVSS VL: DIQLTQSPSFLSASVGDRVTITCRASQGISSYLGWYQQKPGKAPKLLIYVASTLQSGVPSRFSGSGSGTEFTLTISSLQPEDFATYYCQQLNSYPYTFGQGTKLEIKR", "pEC50", 9.30],
  ["PR001166 (antibody, human IgG1, kappa, V domains shown, fully human IgG1/kappa; also called antibody No. (27)) VH: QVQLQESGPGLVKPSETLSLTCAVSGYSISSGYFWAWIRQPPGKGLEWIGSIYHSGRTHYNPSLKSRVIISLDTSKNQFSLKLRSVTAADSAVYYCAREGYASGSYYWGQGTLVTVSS VL: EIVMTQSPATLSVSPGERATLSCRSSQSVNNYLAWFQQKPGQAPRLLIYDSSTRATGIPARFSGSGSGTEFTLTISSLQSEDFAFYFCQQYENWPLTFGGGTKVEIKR", "pEC50", 9.69]
]}
